Collected neutralization IC50 values appear next to each entry.
- target: Env of HIV-1 strain 251-18 (HIV-1)
- experiment-description: cell-based or functional assay
value-kind: neutralization IC50 (µg/mL)

INSERT INTO results (binder, value_kind, operator, obs_value) VALUES
  ('γ52κ5 (antibody, V domains shown) VH: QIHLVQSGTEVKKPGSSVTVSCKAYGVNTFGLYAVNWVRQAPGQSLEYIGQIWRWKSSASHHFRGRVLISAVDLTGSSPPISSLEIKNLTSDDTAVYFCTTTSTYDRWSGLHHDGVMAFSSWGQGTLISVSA VL: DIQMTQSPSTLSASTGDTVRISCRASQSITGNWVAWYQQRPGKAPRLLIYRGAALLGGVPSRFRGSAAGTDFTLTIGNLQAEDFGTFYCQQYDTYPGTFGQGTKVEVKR', 'neutralization IC50', '=', 0.048),
  ('γ59κ11 (antibody, V domains shown) VH: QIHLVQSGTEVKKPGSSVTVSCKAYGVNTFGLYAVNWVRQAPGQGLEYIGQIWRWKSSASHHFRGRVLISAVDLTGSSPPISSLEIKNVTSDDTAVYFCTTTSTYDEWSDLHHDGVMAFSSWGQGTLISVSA VL: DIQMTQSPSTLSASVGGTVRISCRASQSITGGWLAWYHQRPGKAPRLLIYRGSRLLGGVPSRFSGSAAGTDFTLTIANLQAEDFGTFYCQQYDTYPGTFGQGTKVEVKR', 'neutralization IC50', '>', 15),
  ('8ANC3044 (antibody, V domains shown) VH: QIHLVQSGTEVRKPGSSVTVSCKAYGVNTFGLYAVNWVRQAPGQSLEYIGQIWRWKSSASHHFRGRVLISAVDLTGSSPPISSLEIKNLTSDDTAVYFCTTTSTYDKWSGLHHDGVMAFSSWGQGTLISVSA VL: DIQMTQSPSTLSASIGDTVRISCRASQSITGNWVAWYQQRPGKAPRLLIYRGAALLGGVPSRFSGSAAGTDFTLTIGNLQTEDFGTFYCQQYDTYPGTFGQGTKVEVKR', 'neutralization IC50', '=', 0.858),
  ('γ8κ3 (antibody, V domains shown) VH: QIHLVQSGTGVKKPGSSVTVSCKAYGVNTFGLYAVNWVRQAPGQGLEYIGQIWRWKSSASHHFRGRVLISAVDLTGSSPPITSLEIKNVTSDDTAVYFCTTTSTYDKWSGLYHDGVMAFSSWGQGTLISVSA VL: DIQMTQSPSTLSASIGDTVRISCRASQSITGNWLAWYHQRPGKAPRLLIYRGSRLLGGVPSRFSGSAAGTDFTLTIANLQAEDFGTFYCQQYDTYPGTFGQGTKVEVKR', 'neutralization IC50', '>', 15);
